# Test system: MCF7 cell line
# Protocol summary: In vitro cytotoxic activity, MTT method, MCF7
# Assay type: cell-based, human
# Recorded conditions: MCF7, 0.391 µMol
Entries are sorted into classes by Viability % as follows: low bin: < 60%; mid bin: ≥ 60% and < 90%; high bin: ≥ 90%

IN: Sort into band: CC(=O)C1C(c2ccc(N(C)C)cc2)c2c(C)nc(SCC(=O)Nc3ccc(Cl)cc3)c(C#N)c2CC1(C)O (stereo not shown)
OUT: high bin

IN: GET /class?item= COc1cccc2c1C(=O)c1c(O)c3c(c(O)c1C2=O)C[C@@](O)(C(=O)CO)C[C@@H]3O[C@H]1C[C@H](N)[C@H](O)[C@H](C)O1 [Doxorubicin, reference compound]
OUT: low bin

IN: For CC(=O)C1C(c2ccc(N(C)C)cc2)c2c(C)nc(SCC#N)c(C#N)c2CC1(C)O (stereo not shown) , which Viability % bin applies?
OUT: low bin

IN: Where would CC(=O)C1C(c2ccc(N(C)C)cc2)c2c(C)nc(SCC(N)=O)c(C#N)c2CC1(C)O (stereo not shown) land among the classes by reported Viability %?
OUT: high bin

IN: GET /class?item= CC(=O)c1ccc(NC(=O)CSc2nc(C)c3c(c2C#N)CC(C)(O)C(C(C)=O)C3c2ccc(N(C)C)cc2)cc1 (stereo not shown)
OUT: mid bin

IN: For CCOC(=O)CSc1nc(C)c2c(c1C#N)CC(C)(O)C(C(C)=O)C2c1ccc(N(C)C)cc1 (stereo not shown) , which Viability % bin applies?
OUT: high bin
